- Protocol Details: Solubility of tricyclic derivative compound in solubilizing agents (HPLC)
- Assay type: physicochemical
- Condition Info: organic solvent or mixture; solvent: Polyethylene glycol 400 (PEG 400)
Assay Endpoint: solubility at 24 h (mg/mL)

smiles_representation=CCOc1cc2c(c(OC)c1OC)-c1ccc(SC)c(=O)cc1[C@@H](NC(=O)c1cccc(CO[N+](=O)[O-])c1F)CC2 value_reported=52

* * *

- Protocol Details: Solubility of tricyclic derivative compound in solubilizing agents (HPLC)
- Format: physicochemical
- Condition Info: PEG 400:water 20:80, aqueous with cosolvent or surfactant or cyclodextrin
Assay Endpoint: solubility at 24 h

compound="CCOc1cc2c(c(OC)c1OC)-c1ccc(SC)c(=O)cc1[C@@H](NC(=O)c1cccc(CO[N+](=O)[O-])c1F)CC2 [tricyclic derivative compound]" value_reported="2.94 µg/mL"

* * *

- Protocol Details: Solubility of tricyclic derivative compound in solubilizing agents (HPLC)
- Type: physicochemical
- Condition Info: PEG 400:water 30:70, aqueous with cosolvent or surfactant or cyclodextrin
Assay Endpoint: solubility at 24 h (µg/mL)

smiles_representation=CCOc1cc2c(c(OC)c1OC)-c1ccc(SC)c(=O)cc1[C@@H](NC(=O)c1cccc(CO[N+](=O)[O-])c1F)CC2 value_reported=1.24

* * *

- Protocol Details: Solubility of tricyclic derivative compound in solubilizing agents (HPLC)
- Type: physicochemical
- Condition Info: PEG 400:water 100:0, organic solvent or mixture
Assay Endpoint: solubility at 24 h (mg/mL)

smiles_representation=CCOc1cc2c(c(OC)c1OC)-c1ccc(SC)c(=O)cc1[C@@H](NC(=O)c1cccc(CO[N+](=O)[O-])c1F)CC2 value_reported=52

* * *

- Protocol Details: Solubility of tricyclic derivative compound in solubilizing agents (HPLC)
- Type: physicochemical
- Condition Info: PEG 400:water 40:60, aqueous with cosolvent or surfactant or cyclodextrin
Assay Endpoint: solubility at 24 h (µg/mL)

smiles_representation=CCOc1cc2c(c(OC)c1OC)-c1ccc(SC)c(=O)cc1[C@@H](NC(=O)c1cccc(CO[N+](=O)[O-])c1F)CC2 assay_endpoint="solubility at 24 h" value_reported=53.9

* * *

- Protocol Details: Solubility of tricyclic derivative compound in solubilizing agents (HPLC)
- Assay type: physicochemical
- Condition Info: PEG 400:water 50:50, aqueous with cosolvent or surfactant or cyclodextrin
Assay Endpoint: solubility at 24 h (µg/mL)

compound="CCOc1cc2c(c(OC)c1OC)-c1ccc(SC)c(=O)cc1[C@@H](NC(=O)c1cccc(CO[N+](=O)[O-])c1F)CC2 [tricyclic derivative compound]" value_reported=189
